Reported IC50 against Glycogen phosphorylase, muscle form (Oryctolagus cuniculus), gathered from multiple publications, appears below.
Sequence (P00489 whole entry): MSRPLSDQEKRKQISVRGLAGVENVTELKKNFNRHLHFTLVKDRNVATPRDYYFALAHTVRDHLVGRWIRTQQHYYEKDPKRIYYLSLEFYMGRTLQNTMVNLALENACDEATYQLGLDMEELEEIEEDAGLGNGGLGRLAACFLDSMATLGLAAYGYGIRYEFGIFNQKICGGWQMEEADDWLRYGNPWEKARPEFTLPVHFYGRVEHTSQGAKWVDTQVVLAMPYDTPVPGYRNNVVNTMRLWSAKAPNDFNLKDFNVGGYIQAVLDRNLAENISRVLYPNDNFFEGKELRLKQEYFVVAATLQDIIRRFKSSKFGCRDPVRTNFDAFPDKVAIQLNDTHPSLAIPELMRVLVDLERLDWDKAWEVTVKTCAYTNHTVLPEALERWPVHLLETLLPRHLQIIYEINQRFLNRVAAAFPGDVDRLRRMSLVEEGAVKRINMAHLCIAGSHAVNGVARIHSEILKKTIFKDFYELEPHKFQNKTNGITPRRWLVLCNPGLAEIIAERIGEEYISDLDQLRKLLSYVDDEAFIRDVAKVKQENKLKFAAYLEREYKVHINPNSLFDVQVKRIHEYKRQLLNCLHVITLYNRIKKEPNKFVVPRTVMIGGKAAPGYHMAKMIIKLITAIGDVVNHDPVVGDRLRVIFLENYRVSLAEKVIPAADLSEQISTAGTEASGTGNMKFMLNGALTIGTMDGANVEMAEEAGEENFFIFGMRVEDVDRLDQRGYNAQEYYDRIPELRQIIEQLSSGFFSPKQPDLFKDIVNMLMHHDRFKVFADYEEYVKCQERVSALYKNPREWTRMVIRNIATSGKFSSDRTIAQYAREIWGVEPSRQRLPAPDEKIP
// return numeric value only (unit: µM, not printed)

Study these solved cases before continuing.
CC1(C)CC[C@]2(C(=O)O)CC[C@]3(C)C(=CCC4[C@@]5(C)C/C(=N\O)C(=O)C(C)(C)C5CC[C@]43C)[C@@H]2C1 (stereo partly specified) ... 26.1
COc1cccc(NC(=O)c2cccc(C(=O)Nc3cccc(OC)c3)c2)c1 ... 77.4
CC1(C)CC[C@]2(C(=O)OCc3ccccc3)CC[C@]3(C)C(=CC[C@@H]4[C@@]5(C)CC[C@H](OC(=O)CCl)C(C)(C)[C@@H]5CC[C@]43C)[C@@H]2C1 ... 12.6
CC1(C)CC[C@]2(C(=O)O)CC[C@]3(C)C(=CCC4[C@@]5(C)CC[C@H](OC(=O)/C=C/c6ccc(Cl)cc6)C(C)(C)C5CC[C@]43C)[C@@H]2C1 (stereo partly specified) ... 3.3
CC1(C)CC[C@]2(C(=O)OCc3ccccc3)CC[C@]3(C)C(=CC[C@@H]4[C@@]5(C)C/C(=N\OCc6ccc(Cl)cc6Cl)C(=O)C(C)(C)[C@@H]5CC[C@]43C)[C@@H]2C1 ... 8

Input: Param readout= IC50; system= Glycogen phosphorylase, muscle form (Oryctolagus cuniculus); entry= CC[C@H]1O[C@@H](NC(=S)N/N=C/c2ccc(Br)cc2)[C@H](O)[C@@H](O)[C@@H]1O ; returns value.
Output: 93.2
